# SYSTEM NAME: human Siglec-7 on primary human monocyte-derived dendritic cells (human, UniProt Q9Y286 19-467)
# Sequence (Q9Y286 19-467): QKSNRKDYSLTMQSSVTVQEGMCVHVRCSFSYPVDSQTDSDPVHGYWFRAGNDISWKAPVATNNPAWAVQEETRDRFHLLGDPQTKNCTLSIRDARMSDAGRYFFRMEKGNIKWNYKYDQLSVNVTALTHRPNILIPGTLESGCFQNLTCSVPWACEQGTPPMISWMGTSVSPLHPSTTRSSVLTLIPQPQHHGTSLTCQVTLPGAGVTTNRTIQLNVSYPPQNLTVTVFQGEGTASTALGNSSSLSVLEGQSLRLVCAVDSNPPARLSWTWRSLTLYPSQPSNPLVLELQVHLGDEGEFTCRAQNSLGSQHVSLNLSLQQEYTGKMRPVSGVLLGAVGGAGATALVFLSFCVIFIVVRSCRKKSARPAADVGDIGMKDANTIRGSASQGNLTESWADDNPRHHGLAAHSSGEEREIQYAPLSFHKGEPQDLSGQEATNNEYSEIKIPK
# PROCEDURE SUMMARY: cell-based or functional assay
In this section, each of the binders is paired with its reported Maximal downregulation (% Siglec-7 remaining).
State just the number; it will be interpreted in %.

Examples with answers:
S7AB-H8.44 huIgG1 LALAPS (antibody, V domains shown) VH: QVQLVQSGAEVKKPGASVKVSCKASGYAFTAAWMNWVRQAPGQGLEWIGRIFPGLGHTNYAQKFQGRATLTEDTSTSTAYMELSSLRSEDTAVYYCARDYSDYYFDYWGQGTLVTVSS VL: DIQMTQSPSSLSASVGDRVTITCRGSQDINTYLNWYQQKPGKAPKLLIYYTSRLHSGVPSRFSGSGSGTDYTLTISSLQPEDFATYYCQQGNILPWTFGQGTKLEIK	2.8
S7AB-H8.44 huIgG1 N297A (antibody, V domains shown) VH: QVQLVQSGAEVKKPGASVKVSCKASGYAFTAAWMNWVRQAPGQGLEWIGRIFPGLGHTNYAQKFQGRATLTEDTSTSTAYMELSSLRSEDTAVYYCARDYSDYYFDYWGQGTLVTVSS VL: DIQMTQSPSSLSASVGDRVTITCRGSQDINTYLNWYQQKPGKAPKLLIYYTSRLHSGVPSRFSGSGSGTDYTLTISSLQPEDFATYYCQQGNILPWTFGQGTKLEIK	2.9
S7AB-H8.44 huIgG2 (antibody, V domains shown) VH: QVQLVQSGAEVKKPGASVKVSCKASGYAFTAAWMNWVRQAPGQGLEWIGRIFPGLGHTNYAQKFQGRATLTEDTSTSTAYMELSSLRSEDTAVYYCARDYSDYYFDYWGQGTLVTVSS VL: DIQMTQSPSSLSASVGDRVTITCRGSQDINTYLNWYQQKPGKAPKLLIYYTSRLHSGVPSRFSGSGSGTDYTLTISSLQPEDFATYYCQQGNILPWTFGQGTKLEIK	2.8

# evaluate next
Maximal downregulation (% Siglec-7 remaining) recorded for this binder, S7AB-H8.44 huIgG1 (antibody, V domains shown) VH: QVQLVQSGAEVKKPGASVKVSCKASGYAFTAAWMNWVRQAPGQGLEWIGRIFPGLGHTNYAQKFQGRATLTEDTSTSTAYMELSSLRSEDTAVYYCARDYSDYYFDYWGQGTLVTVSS VL: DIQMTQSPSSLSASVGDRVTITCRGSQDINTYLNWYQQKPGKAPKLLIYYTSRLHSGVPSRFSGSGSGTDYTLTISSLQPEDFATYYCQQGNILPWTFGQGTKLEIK , is 1
